molecular target: Cbl-b (aa36-427) (Homo sapiens, UniProt Q13191); construct: Cbl-b (aa36-427, in-house); made in house; test: Co-expressed Cbl-b with BirA biochemical assay (CBLB/E2-Ub binding, HTRF); conditions: 0.6 nM Cbl-b co-expressed with BirA, HTRF; read-out: co-express CBLB/E2-Ub-binding assay IC50
Sequence (Q13191 36-427): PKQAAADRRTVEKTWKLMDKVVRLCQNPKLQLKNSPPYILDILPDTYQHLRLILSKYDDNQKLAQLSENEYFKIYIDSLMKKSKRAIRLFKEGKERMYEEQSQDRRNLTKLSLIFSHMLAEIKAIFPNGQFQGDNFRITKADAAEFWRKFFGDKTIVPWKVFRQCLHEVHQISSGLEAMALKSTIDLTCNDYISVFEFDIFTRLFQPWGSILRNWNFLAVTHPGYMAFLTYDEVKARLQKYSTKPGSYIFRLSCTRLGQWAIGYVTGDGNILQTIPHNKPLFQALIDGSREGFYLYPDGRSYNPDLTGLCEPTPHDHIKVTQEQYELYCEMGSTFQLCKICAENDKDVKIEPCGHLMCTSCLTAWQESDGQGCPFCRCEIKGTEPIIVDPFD
QUANTITY_NAME: IC50 (nM)
# value in nM; strip the unit string

Worked examples follow.
[[record]]
smi = "C[C@H]1CCCN(Cc2cc(C(=O)Nc3cccc([C@]4(Cc5nncn5C)C[C@@H](C#N)C4)c3)nc3c(F)c[nH]c23)C1"
test_system = "Cbl-b (aa36-427) (Homo sapiens, UniProt Q13191)"
unit_of_measure = "nM"
observed_value = 1.8

[[record]]
smi = "Cn1cnnc1[C@]1(c2cncc(NC(=O)c3cc(CNC4(C)CC4)cc4c(F)cnn34)c2)C[C@H](C)C1"
test_system = "Cbl-b (aa36-427) (Homo sapiens, UniProt Q13191)"
unit_of_measure = "nM"
observed_value = 1.6

[[record]]
smi = "C[C@H]1CCCN(Cc2cc(C(=O)Nc3cccc(C4(Cc5nncn5C)COC4)c3)nn3cccc23)C1"
test_system = "Cbl-b (aa36-427) (Homo sapiens, UniProt Q13191)"
unit_of_measure = "nM"
observed_value = 23.9

[[record]]
smi = "C[C@H]1CCCN(Cc2cc(C(=O)Nc3cccc([C@]4(Cc5nncn5C)C[C@H](C#N)C4)c3)nc3c2CCC3(C)C)C1"
test_system = "Cbl-b (aa36-427) (Homo sapiens, UniProt Q13191)"
unit_of_measure = "nM"
observed_value = 1.4

[[record]]
smi = "C[C@H]1CCCN(Cc2cc(C(=O)Nc3cccc([C@]4(c5nncn5C)C[C@@H](CC#N)C4)c3)n3ncc(Cl)c3c2)C1"
test_system = "Cbl-b (aa36-427) (Homo sapiens, UniProt Q13191)"
unit_of_measure = "nM"
observed_value = 2.9

[[record]]
smi = "Cn1cnnc1[C@]1(c2cccc(NC(=O)c3cc(CNCC4CCC4)c4[nH]cc(F)c4n3)c2)C[C@H](C)C1"
test_system = "Cbl-b (aa36-427) (Homo sapiens, UniProt Q13191)"
unit_of_measure = "nM"
observed_value = 0.8


Exercise: Quick one: IC50 of Cn1ccc2nc(C(=O)Nc3cccc([C@]4(c5nncn5C)C[C@@H](CC#N)C4)c3)cc(CNC3(C)CCC3)c21 ?
Solution: 1.4

Exercise: Try Cn1cnnc1[C@]1(c2cccc(NC(=O)c3cc(CNCC4CCC4)c4[nH]ccc4n3)c2)C[C@H](C)C1 next.
Solution: 1

Exercise: Another compound: C[C@@H]1CN(Cc2cc(C(=O)Nc3cccc([C@]4(c5nncn5C)C[C@@H](CC#N)C4)c3)nc3c2NCC3(C)C)CC[C@@H]1F
Solution: 0.7

Exercise: Next: Cc1cnc2c(C(=O)Nc3cccc([C@]4(c5nncn5C)C[C@@H](C)C4)c3)cc(CN3CC[C@H](F)[C@H](C)C3)cn12
Solution: 1.6

Exercise: Would you kindly repeat that for C[C@H]1CCCN(Cc2cc(C(=O)Nc3cccc([C@]4(c5nncn5C)C[C@@H](CC#N)C4)c3)nc3c2OCC3(C)C)C1 ?
Solution: 2.3

Exercise: // repeat for CCn1cnnc1[C@]1(c2cccc(NC(=O)c3cc(CNC4(C)CC4)cn4ccnc34)c2)C[C@H](C)C1 and report
Solution: 3.4

Exercise: C[C@H]1CCCN(Cc2cc(C(=O)Nc3cccc(C4(Cc5nncn5C)COC4)c3)nc3cc[nH]c23)C1 ?
Solution: 4

Exercise: And the next one, C[C@H]1CCCN(Cc2cc(C(=O)Nc3cccc([C@]4(c5nncn5C)C[C@@H](CC#N)C4)c3)nc3c2CCC3(C)C)C1 ?
Solution: 0.9

Exercise: Cn1cnnc1[C@]1(c2cccc(NC(=O)c3cc(CNCC4CCCC4)cn4ccnc34)c2)C[C@H](C)C1 , same question.
Solution: 1.8

Exercise: Note, next up: C[C@H](NCc1cc(C(=O)Nc2cccc([C@]3(c4nncn4C)C[C@@H](CC#N)C3)c2)nc2c1OCC2(C)C)C1CC1
Solution: 2.3

Exercise: Then CC(C)CNCc1cc(C(=O)Nc2cncc([C@]3(c4nncn4C)C[C@@H](C)C3)c2)c2ncc(F)n2c1 ?
Solution: 0.73

Exercise: What do we get for C[C@H]1CCCN(Cc2cc(C(=O)Nc3cccc([C@]4(Cc5nncn5C)C[C@@H](C#N)C4)c3)nc3cc[nH]c23)C1 ?
Solution: 1.9
